- assayed-target: Motilin receptor (Oryctolagus cuniculus)
- Sequence (A5A4K8 whole entry): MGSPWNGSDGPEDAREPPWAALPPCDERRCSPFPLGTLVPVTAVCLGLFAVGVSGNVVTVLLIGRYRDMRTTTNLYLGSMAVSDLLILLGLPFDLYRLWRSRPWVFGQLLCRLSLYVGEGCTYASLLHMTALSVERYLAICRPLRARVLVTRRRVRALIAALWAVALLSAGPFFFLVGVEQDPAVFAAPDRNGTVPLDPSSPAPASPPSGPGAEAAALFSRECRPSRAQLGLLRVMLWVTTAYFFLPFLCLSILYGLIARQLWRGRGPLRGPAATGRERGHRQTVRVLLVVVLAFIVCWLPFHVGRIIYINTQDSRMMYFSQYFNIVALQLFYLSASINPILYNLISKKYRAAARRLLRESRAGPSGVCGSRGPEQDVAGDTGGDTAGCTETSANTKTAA
- assay-details: In vitro binding affinity towards motilin receptor was determined in rabbit small intestinal smooth muscle tissue homogenate
- Type: tissue-based
observation-type: IC50 (nM)

1. CCC1OC(=O)C(C)C(O[C@H]2C[C@@](C)(OC)CC(C)O2)C(C)[C@@H](OC2OC(C)CC(N(C)CC)[C@H]2O)[C@]2(C)CC(C)=C(O2)[C@H](C)C(=O)[C@]1(C)OC (some centres undefined)
2. CCC1OC(=O)C(C)C(O[C@H]2C[C@@](C)(OC)CC(C)O2)C(C)[C@@H](OC2OC(C)CC(N(C)C)[C@H]2O)[C@]2(C)CC(C)=C(O2)[C@H](C)C(=O)[C@]1(C)OC (some centres undefined)
Of the two listed items, 1 and 2 , which carries the larger IC50 figure? Answer = label.
1
